# assay-target: AM (Homo sapiens)
# Construct: AM is a 52 amino acid peptide; purchased Peninsula (S. Carlos, Calif.); host or cells: synthetic peptide
# experimental-details: cAMP analysis for AM in Rat2 cells
# Assay type: cell-based, rat
# measurement-conditions: in the presence of 100 nM AM, Rat2 cells
quantity-kind: variation of intracellular cAMP levels

CCN(CC)CCC(O)(Cc1ccccc1)C(C(=O)O)c1ccccc1 (centres unmarked): most active antagonists
OC(COc1ccccc1)CN1CCCCC1 (centres unmarked): most active antagonists
CCN1CCC(O)(C(C(=O)O)c2ccccc2)CC1 (centres unmarked): most active antagonists

###

# assay-target: AM (Homo sapiens)
# Construct: AM is a 52 amino acid peptide; purchased Peninsula (S. Carlos, Calif.); host or cells: synthetic peptide
# Sequence (P35318 95-146): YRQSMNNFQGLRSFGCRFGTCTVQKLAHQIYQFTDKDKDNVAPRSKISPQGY
# experimental-details: cAMP analysis for AM in Rat2 cells
# Format: cell-based, rat
# measurement-conditions: peptide AM; cAMP induced by 100 nM AM in Rat2 cells
quantity-kind: Action on second messengers

c1ccc(Nn2c(CCCCCCCCc3nnc(COc4ccccc4)n3Nc3ccccc3)nnc2COc2ccccc2)cc1 [compound 697165]: Superagonists
OC(COc1ccccc1)CN1CCCCC1 (centres unmarked) [compound 89435]: Antagonists
CS(=O)(=O)OC1CN2CCC1CC2 (centres unmarked) [compound 79422]: Antagonists
CCN(CC)CCC(O)(Cc1ccccc1)C(C(=O)O)c1ccccc1 (centres unmarked) [compound 50161]: Antagonists

Reported Action on second messengers of OCCCN=C1CCCCC1 [compound 128911] : Superagonists

Reported Action on second messengers of Nn1c(CCCCCCCCc2nnc(COc3ccc4ccccc4c3O)n2N)nnc1COc1ccc2ccccc2c1O [compound 697162] : Superagonists

Reported Action on second messengers of CCN1CCC(O)(C(C(=O)O)c2ccccc2)CC1 (centres unmarked) [compound 16311] : Antagonists

Reported Action on second messengers of Nc1nc(=O)c2[nH]cnc2n1O [compound 145425] : Superagonists

###

# assay-target: AM (Homo sapiens)
# Construct: AM is a 52 amino acid peptide; purchased Peninsula (S. Carlos, Calif.); host or cells: synthetic peptide
# experimental-details: Surface plasmon resonance binding to immobilized AM
# measurement-conditions: thermodynamic dissociation constant; read-out: Binding to AM KD
quantity-kind: Kd (nM)
Give the number; nM is assumed, so skip it.

Reported Kd of OC(COc1ccccc1)CN1CCCCC1 (stereo not shown) : 851

Attribution: patent US20120232107A1
